- systemTested: HLA-A*02:01 (Homo sapiens, UniProt P04439, D140Y/D185E/D98H/E176V/E277Q/G131W/G231S/I119V/I121R/I166T/I218V/L300P/L318F/N151K/N90K/P208A/P217A/Q86G/Q94H/R138H/R169H/T345S)
- experiment: MHC binding assay: UV-ligand exchange with beta2m ELISA (peptide exchange yield)
- conditionSet: binding to HLA-A*02:01
property: Peptide exchange (MHC class I binding score, peptide exchange yield)

Some solved entries appear below for comparison.
substance	endpointValue
251 (ALYTGFSILV; listed as Homo sapiens) [compound 251]	“++” (≥20% = ++)
495 (FIFSEKPVFV; listed as Homo sapiens) [compound 495]	“+++” (≥50 = +++)
186 (TLFFQQNAL; listed as Homo sapiens) [compound 186]	“++” (≥20% = ++)
57 (TLAELQPPVQL; listed as Homo sapiens) [compound 57]	“+++” (≥50 = +++)

Prompt: Would you mind telling me what Peptide exchange (MHC class I binding score, peptide exchange yield) value was observed for 78 (SLFSSLEPQIQPV; listed as Homo sapiens) [compound 78] ?
Completion: “+++” (≥50 = +++)

====

- systemTested: HLA-A*02:01 (Homo sapiens, UniProt P04439, D140Y/D185E/D98H/E176V/E277Q/G131W/G231S/I119V/I121R/I166T/I218V/L300P/L318F/N151K/N90K/P208A/P217A/Q86G/Q94H/R138H/R169H/T345S)
- experiment: MHC binding assay: UV-ligand exchange with beta2m ELISA (peptide exchange yield)
- conditionSet: binding to HLA-A*02:01
property: Peptide exchange (MHC class I binding score, peptide exchange yield)

Some solved entries appear below for comparison.
substance	endpointValue
357 (SMHDLVLQV; listed as Homo sapiens) [compound 357]	“+++” (≥50 = +++)
457 (SLLPGNLVEKV; listed as Homo sapiens) [compound 457]	“+++” (≥50 = +++)
374 (FLLQQHLISA; listed as Homo sapiens) [compound 374]	“++” (≥20% = ++)
392 (ALLHPQGFEV; listed as Homo sapiens) [compound 392]	“++” (≥20% = ++)
412 (YLDDLNEGVYI; listed as Homo sapiens) [compound 412]	“++” (≥20% = ++)

Prompt: Would you mind telling me what Peptide exchange (MHC class I binding score, peptide exchange yield) value was observed for 27 (ILADIVISA; listed as Homo sapiens) [compound 27] ?
Completion: “+++” (≥50 = +++)

Prompt: Would you mind telling me what Peptide exchange (MHC class I binding score, peptide exchange yield) value was observed for 313 (VLFDDELLMV; listed as Homo sapiens) [compound 313] ?
Completion: “+++” (≥50 = +++)

Prompt: Would you mind telling me what Peptide exchange (MHC class I binding score, peptide exchange yield) value was observed for 210 (LLLNAVLTV; listed as Homo sapiens) [compound 210] ?
Completion: “++” (≥20% = ++)

Prompt: Would you mind telling me what Peptide exchange (MHC class I binding score, peptide exchange yield) value was observed for 36 (YVLEDLEVTV; listed as Homo sapiens) [compound 36] ?
Completion: “++” (≥20% = ++)

Prompt: Would you mind telling me what Peptide exchange (MHC class I binding score, peptide exchange yield) value was observed for 399 (YLFEPLYHV; listed as Homo sapiens) [compound 399] ?
Completion: “+++” (≥50 = +++)

Prompt: Would you mind telling me what Peptide exchange (MHC class I binding score, peptide exchange yield) value was observed for 511 (FLDPYCSASV; listed as Homo sapiens) [compound 511] ?
Completion: “++” (≥20% = ++)

Prompt: Would you mind telling me what Peptide exchange (MHC class I binding score, peptide exchange yield) value was observed for 590 (SLIEKLWQT; listed as Homo sapiens) [compound 590] ?
Completion: “++” (≥20% = ++)

Prompt: Would you mind telling me what Peptide exchange (MHC class I binding score, peptide exchange yield) value was observed for 554 (LLMPSSEDLLL; listed as Homo sapiens) [compound 554] ?
Completion: “+++” (≥50 = +++)

Prompt: Would you mind telling me what Peptide exchange (MHC class I binding score, peptide exchange yield) value was observed for 237 (ALLEASGTLLL; listed as Homo sapiens) [compound 237] ?
Completion: “++++” (≥75% = ++++)

Prompt: Would you mind telling me what Peptide exchange (MHC class I binding score, peptide exchange yield) value was observed for 568 (TLYDIAHTPGV; listed as Homo sapiens) [compound 568] ?
Completion: “++++” (≥75% = ++++)

Prompt: Would you mind telling me what Peptide exchange (MHC class I binding score, peptide exchange yield) value was observed for 287 (FLNEFFLNV; listed as Homo sapiens) [compound 287] ?
Completion: “+++” (≥50 = +++)

Prompt: Would you mind telling me what Peptide exchange (MHC class I binding score, peptide exchange yield) value was observed for 137 (TLVLTLPTV; listed as Homo sapiens) [compound 137] ?
Completion: “++++” (≥75% = ++++)
